systemUnderTest: FBW7^ARG+pCycE (Homo sapiens, UniProt Q969H0, R505L)
Construct: GST (TEV site and flexible linker) (N, cleaved yes); made in house; host or cells: SF9 insect cells (baculovirus)
Sequence (Q969H0 64-707 R505L): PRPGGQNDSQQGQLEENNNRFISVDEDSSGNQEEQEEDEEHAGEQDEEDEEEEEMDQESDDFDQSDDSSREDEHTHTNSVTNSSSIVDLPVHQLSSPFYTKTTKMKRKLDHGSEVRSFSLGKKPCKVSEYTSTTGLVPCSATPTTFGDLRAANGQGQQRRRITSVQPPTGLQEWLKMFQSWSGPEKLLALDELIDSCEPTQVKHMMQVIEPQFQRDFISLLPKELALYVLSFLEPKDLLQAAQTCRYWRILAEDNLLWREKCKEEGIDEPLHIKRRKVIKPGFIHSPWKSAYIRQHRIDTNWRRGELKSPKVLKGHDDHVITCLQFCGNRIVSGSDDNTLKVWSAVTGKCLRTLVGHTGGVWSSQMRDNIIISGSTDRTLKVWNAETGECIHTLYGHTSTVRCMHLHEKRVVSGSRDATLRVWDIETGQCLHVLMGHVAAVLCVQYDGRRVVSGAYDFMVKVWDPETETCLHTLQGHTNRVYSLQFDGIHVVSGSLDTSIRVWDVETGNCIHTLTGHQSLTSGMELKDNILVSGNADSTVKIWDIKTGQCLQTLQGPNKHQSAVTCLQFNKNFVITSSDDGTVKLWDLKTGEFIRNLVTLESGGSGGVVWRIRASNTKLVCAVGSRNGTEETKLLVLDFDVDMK
Sequence (P63208 2-163 partner): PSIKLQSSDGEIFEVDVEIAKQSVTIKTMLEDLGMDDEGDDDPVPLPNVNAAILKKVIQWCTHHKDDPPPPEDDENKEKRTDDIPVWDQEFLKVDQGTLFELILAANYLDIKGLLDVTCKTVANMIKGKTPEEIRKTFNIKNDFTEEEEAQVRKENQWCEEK
experimentNotes: FBW7^ARG-cyclin E agonist ALPHAscreen (primary PRUN, confirmation CRUN1, dose-response DRUN)
Assay type: binding
protocolConditions: confirmation assay, triplicate, single concentration 26.1 μM; read-out: FBW7 ACT CRUN1 Avg % Response and Stdev
Text: FBW7^ARG refers to a class of loss-of-function mutations of the of FBW7 ubiquitin ligase that target a key phosphate-binding arginine residue in the FBW7 substrate-binding domain. […] ALPHAscreen is a bead-based proximity assay wherein donor beads contain a photosensitizer, phthalocyanine, and acceptor beads contain thioxene, anthracene and rubrenein in sufficient quantities to generate a chemiluminescence/fluorescence reaction (FIG. 4A). […] 6. Read ALPHAscreen on Envision […]
observedProperty: activation at 26.1 µM (%)

Worked examples, 3 compounds total:
NC(c1nc2cc(-c3ccncc3)cnc2[nH]1)c1ccc(F)cc1F.O=C(O)C(F)(F)F (centres unmarked) [SR-00000003416-1] ... 3.91
CN(C)CCN(C)c1nc([C@H](N)Cc2cccc(F)c2)cc2ccc(-c3cn[nH]c3)cc12.O=C(O)C(F)(F)F [SR-00000006284-1] ... 7.7
CC1=C(C(=O)OCc2ccccc2)C(c2cn(-c3ccccc3)nc2-c2ccc(F)cc2)C(C(=O)OCc2ccccc2)=C(C)N1 [SR-01000425637-1] ... 4.66

A: CC1=C(C(=O)OC2CCCCC2)C(c2ccc(F)cc2)C2=C(CC(c3ccccc3)CC2=O)N1 (centres unmarked) [SR-01000420805-1]
B: COc1ccc(N2C(=O)CC(SCCN)C2=O)cc1 (centres unmarked) [SR-01000428800-1]
For the pair A and B , which entry has the numerically smaller recorded activation at 26.1 µM? Select an item and report its label.
A
(A: 6.77%, B: 11.2%)

I: CCN(CC)c1ccc2cc(-c3ccccn3)c(=O)oc2c1 [SR-01000033354-1]
II: CCC(C)OC(=O)C1=C(C)NC2=C(C(=O)CC(c3ccccc3)C2)C1c1cccc2ccccc12 (centres unmarked) [SR-01000423185-1]
III: CCS(=O)(=O)NCC(c1cccs1)S(=O)(=O)c1ccc(C)cc1 (centres unmarked) [SR-01000023127-1]
IV: O=C(Nc1ccc2oc(-c3ccc4ccccc4c3)nc2c1)c1cccc(Cl)c1Cl [SR-01000415504-1]
Rank items: key activation at 26.1 µM, increasing. To answer, write out the labels according to the requested order.
III, I, II, IV

A: COc1ccccc1N1C(=O)c2ccc(C(=O)Nc3cc([N+](=O)[O-])ccc3O)cc2C1=O [SR-01000236956-1]
B: Cc1ccc(-c2nnc(N3CCN(C(=O)c4ccco4)CC3)c3ccccc23)cc1 [SR-01000505133-1]
C: CCc1ccc(N2CC(C(=O)NCC(C)(C)CNC(=O)C3CC(=O)N(c4ccc(CC)cc4)C3)CC2=O)cc1 (centres unmarked) [SR-01000537224-1]
D: CCCOC(=O)C1=C(C)N(CC)C(=O)NC1c1ccccc1[N+](=O)[O-] (centres unmarked) [SR-01000417871-1]
Could you please order the items by activation at 26.1 µM, going from the lowest number to the highest? Labels, requested order.
B, A, C, D
(B: 2.31%, A: 3.72%, C: 7.38%, D: 18.3%)

====

systemUnderTest: FBW7^ARG+pCycE (Homo sapiens, UniProt Q969H0, R505L)
Construct: GST (TEV site and flexible linker) (N, cleaved yes); made in house; host or cells: SF9 insect cells (baculovirus)
experimentNotes: FBW7^ARG-cyclin E agonist ALPHAscreen (primary PRUN, confirmation CRUN1, dose-response DRUN)
Type: binding
protocolConditions: confirmation assay, triplicate, single concentration 26.1 μM; read-out: FBW7 ACT CRUN1 Avg % Response and Stdev
observedProperty: activation at 26.1 µM (%)

// known answers, use as guide
CN(C)CC[S+]([O-])c1cc(-c2cn[nH]c2)ccc1NC(=O)[C@@H]1Cc2cc(F)ccc2CN1.O=C(O)C(F)(F)F (stereo partly shown) ... 2.28
Cc1c(NC(=O)/C(=C\c2ccccc2)NC(=O)c2ccccc2)c(=O)n(-c2ccccc2)n1C ... 4.37
CC1=C(C(=O)OC(C)C)C(c2ccncc2)C2=C(CC(c3ccccc3)CC2=O)N1 (stereo not shown) ... 6.36
Cc1cc(OCC(=O)Nc2ccc3oc(-c4ccccc4Br)nc3c2)cc(C)c1Cl ... 3.2
O=C(NCc1ccc(C(=O)NCCc2ccccn2)cc1)Nc1ccc(-c2cn[nH]c2)cc1 ... 4.71

I: Cc1ccc(-c2cccc3cnc(Nc4ccc(-n5cnc(-c6ccccn6)n5)cc4)nc23)cn1.O=C(O)C(F)(F)F
II: COc1cccc(/C=N/c2ccc3[nH]ncc3c2)c1O
Return label of the item with the larger activation at 26.1 µM. Candidates: I , II . Provide the label of your selected option as the answer.
I
(I: 4.91%, II: 2.38%)

====

systemUnderTest: FBW7^ARG+pCycE (Homo sapiens, UniProt Q969H0, R505L)
Construct: GST (TEV site and flexible linker) (N, cleaved yes); made in house; host or cells: SF9 insect cells (baculovirus)
experimentNotes: FBW7^ARG-cyclin E agonist ALPHAscreen (primary PRUN, confirmation CRUN1, dose-response DRUN)
Type: binding
protocolConditions: DRUN dose-response, triplicate, 10 point 3-fold dilution, max approx. 87 μM; read-out: FBW7 ACT Final EC50, Molar
observedProperty: EC50

Worked set:
CC(=O)Nc1ccc(NC(=O)Cn2cnc3c(cnn3C(C)(C)C)c2=O)cc1 ... > 65.3 µM
CCOc1ccc(Br)cc1C1C2=C(CCCC2=O)N(CC(=O)O)C2=C1C(=O)CCC2 ... > 43.6 µM
COc1ccc(SCC(=O)NNC(=S)Nc2ccccc2)cc1 ... > 56.6 µM
Cc1ccnc(N2CCC(C(=O)Nc3ccccc3Br)CC2)n1 ... > 65.3 µM

EC50 recorded for this molecule, CN(C)CC[S+]([O-])c1cc(-c2cn[nH]c2)ccc1NC(=O)[C@@H]1Cc2cc(F)ccc2CN1.O=C(O)C(F)(F)F (some centres unmarked) , is > 65.3 µM

The reported EC50 of the molecule CCOC(=O)C1CCN(C(=O)Nc2ccc(NC(=O)C3CCN(C(=O)OCC)CC3)cc2)CC1 was > 45.3 µM

According to the records, this molecule COc1ccc(C2CC(=O)C3=C(C2)NC(C)=C(C(=O)OC(C)C)C3c2ccccc2OC(C)C)cc1 (centres unmarked) displays EC50 of > 42.9 µM

Consider CCN(Cc1ccccc1)C(=O)c1cc2c(=O)n3cccc(C)c3nc2n1C . Its measured EC50 is > 65.3 µM

====

systemUnderTest: FBW7^ARG (RLFBW7) alone (Homo sapiens, UniProt Q969H0, R505L)
Construct: GST (TEV site and flexible linker) (N, cleaved yes); made in house; host or cells: SF9 insect cells (baculovirus)
Sequence (Q969H0 64-707 R505L): as the sequence (Q969H0 64-707 R505L) above
Sequence (P63208 2-163 partner): as the sequence (P63208 2-163 partner) above
experimentNotes: Counterscreen 1 ALPHAscreen with FBW7^ARG alone (CSRUN1/DCSRUN1)
Format: binding
protocolConditions: dose-response counterscreen, raw curve fit, read-out: RLFBW7 ACT DCSRUN1 EC50 Curve Fit Raw
observedProperty: EC50 (µM)

CCSCCOC(=O)C1=C(C)NC2=C(C(=O)CC(c3ccccc3)C2)C1c1ccc(OC)cc1OC (stereo not drawn) ... 0.0044
Cc1ncn(-c2ccc(Nc3cc(-c4nocc4-c4ccccn4)ccn3)cc2)n1.O=C(O)C(F)(F)F ... 83.6
CN(C)CCN(C)c1nc([C@H](N)Cc2cccc(F)c2)cc2ccc(-c3cn[nH]c3)cc12.O=C(O)C(F)(F)F ... 2.2

a: CC(NC(=O)c1cnc2ccccn12)c1ccc(F)cc1 (stereo not drawn)
b: COc1cccc(/C=N/c2ccc3[nH]ncc3c2)c1O
c: CCc1ccc(N2CC(C(=O)NCC(C)(C)CNC(=O)C3CC(=O)N(c4ccc(CC)cc4)C3)CC2=O)cc1 (stereo not drawn)
d: COCCOC(=O)C1=C(C)NC2=C(C(=O)CC(c3ccccc3)C2)C1c1ccc(OCc2ccccc2)cc1 (stereo not drawn)
Sequence the entries by EC50, beginning with the highest number. # list labels per requested ordering
b, d, a, c
(b: 23.7 µM, d: 0.689 µM, a: 0.011 µM, c: 0.0053 µM)

P: COc1ccc(N2C(=O)CC(SCCN)C2=O)cc1 (stereo not drawn)
Q: CCSCCOC(=O)C1=C(C)NC2=C(C(=O)CCC2)C1c1ccc(Br)cc1 (stereo not drawn)
R: COc1ccccc1-c1ccc(=O)n(CC(=O)Nc2ccc(C(=O)N3CCCC3)cc2)n1
S: Cc1c(NC(=O)/C(=C\c2ccccc2)NC(=O)c2ccccc2)c(=O)n(-c2ccccc2)n1C
Put these in order: smallest EC50 first, largest last. Rank them, then answer with their labels in that order.
P, S, R, Q
(P: 0.0102 µM, S: 0.619 µM, R: 6.3 µM, Q: 24.5 µM)

I: CSc1ccccc1C(=O)Nc1nc2nc(C)cc(C)c2s1
II: CCCOc1ccc(C2C(C(=O)OC)=CN(CCOC)C=C2C(=O)OC)cc1
III: Cc1ccc(-c2nnc(N3CCN(C(=O)c4ccco4)CC3)c3ccccc23)cc1
Endpoint returns the given molecules ordered by ascending EC50. Use the labels to give the ranking in the order requested.
III, II, I
